All values here come from patent US20250195521A1.

target: KRAS G12V (Homo sapiens (Human), UniProt P01116+P62937, G12V); assay: Ras-Raf disruption/FRET/MOA assay (BRAF RBD, Cyclophilin A); type: biochemical; conditions: read-out: KRAS G12V FRET IC50
Sequence (P01116 other isoform, or with tags, fused parts or gaps G12V): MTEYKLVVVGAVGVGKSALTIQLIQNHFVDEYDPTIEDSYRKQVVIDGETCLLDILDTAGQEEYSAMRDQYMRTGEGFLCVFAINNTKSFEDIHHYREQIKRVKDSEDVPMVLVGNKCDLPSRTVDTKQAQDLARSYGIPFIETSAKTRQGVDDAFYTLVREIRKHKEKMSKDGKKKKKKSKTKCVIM
Sequence (P62937 whole entry): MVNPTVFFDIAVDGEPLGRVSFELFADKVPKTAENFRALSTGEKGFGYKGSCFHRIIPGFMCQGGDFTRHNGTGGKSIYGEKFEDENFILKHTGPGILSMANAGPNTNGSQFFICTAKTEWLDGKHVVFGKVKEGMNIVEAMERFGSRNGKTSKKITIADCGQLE
What IC50 was measured for each of the following?

// solved cases for IC50 follow
- compound: "CCn1c(-c2cccnc2[C@H](C)OC)c2c3cc(ccc31)-c1cc(O)cc(c1)C[C@H](NC(=O)[C@H](C(C)C)N(C)C(=O)C1CC(C)C1)C(=O)N1CCC[C@H](N1)C(=O)OCC(C)(C)C2 (stereo partly drawn)"
  result: "100 to 1000 nM"
- compound: "CCn1c(-c2cc(N3CCN(C)CC3)cnc2[C@H](C)OC)c2c3cc(ccc31)-c1csc(n1)C[C@H](NC(=O)[C@H](C(C)C)N(C)C(=O)[C@@H]1OCC[C@@H]1c1ccncc1)C(=O)N1CCC[C@H](N1)C(=O)OCC(C)(C)C2"
  result: "100 to 1000 nM"
- compound: "CCn1c(-c2cccnc2[C@H](C)OC)c2c3cc(ccc31)-c1cc(O)cc(c1)C[C@H](NC(=O)[C@H](C(C)C)N(C)C(=O)[C@H]1CCC(=O)O1)C(=O)N1CCC[C@H](N1)C(=O)OCC(C)(C)C2"
  result: "10 to 100 nM"

Look at each compound and report its IC50.
1. CCn1c(-c2cccnc2[C@H](C)OC)c2c3cc(ccc31)-c1cc(O)cc(c1)C[C@H](NC(=O)[C@H](C(C)C)N(C)C(=O)[C@H]1CCN(C(=O)[C@@H](C)N(C)C)C1)C(=O)N1CCC[C@H](N1)C(=O)OCC(C)(C)C2
2. CCn1c(-c2cccnc2[C@H](C)OC)c2c3cc(ccc31)-c1csc(n1)C[C@H](NC(=O)[C@H](C(C)C)N(C)C(=O)N1CC(OC)C1)C(=O)N1CCC[C@H](N1)C(=O)OCC(C)(C)C2 [Compound A354]
3. CCn1c(-c2cccnc2[C@H](C)OC)c2c3cc(ccc31)-c1csc(n1)C[C@H](NC(=O)[C@H](C(C)C)N(C)C(=O)N1CCCC13CN(C)C3)C(=O)N1CCC[C@H](N1)C(=O)OCC(C)(C)C2
4. CCn1c(-c2cccnc2[C@H](C)OC)c2c3cc(ccc31)-c1csc(n1)C[C@H](NC(=O)[C@H](C(C)C)N(C)C(=O)N1CC(N3CCOCC3)C1)C(=O)N1CCC[C@H](N1)C(=O)OCC(C)(C)C2
5. CCn1c(-c2cccnc2[C@H](C)OC)c2c3cc(ccc31)-c1cc(O)cc(c1)C[C@H](NC(=O)[C@H](C(C)C)N(C)C(=O)[C@H]1CCN(C(=O)[C@@]3(C)CCCN3C)C1)C(=O)N1CCC[C@H](N1)C(=O)OCC(C)(C)C2

### Response
1: 100 to 1000 nM; 2: 100 to 1000 nM; 3: 100 to 1000 nM; 4: 100 to 1000 nM; 5: 10 to 100 nM

With KRAS G12V (Homo sapiens (Human), UniProt P01116+P62937, G12V) as the test system, "CCO[C@@H]1c2nc(cs2)-c2ccc3c(c2)c(c(-c2cc(C4CCN(C5COC5)CC4)cnc2[C@H](C)OC)n3CC)CC(C)(C)COC(=O)[C@@H]2CCCN(N2)C(=O)[C@H]1NC(=O)[C@H]1[C@H](C)[C@@H]1C" showed IC50 of 1000 to 10000 nM

====

target: KRAS G12S (Homo sapiens (Human), UniProt P01116+P62937, G12S); assay: Ras-Raf disruption/FRET/MOA assay (BRAF RBD, Cyclophilin A); assay type: biochemical; settings: read-out: KRAS G12S FRET IC50
Sequence (P01116 other isoform, or with tags, fused parts or gaps G12S): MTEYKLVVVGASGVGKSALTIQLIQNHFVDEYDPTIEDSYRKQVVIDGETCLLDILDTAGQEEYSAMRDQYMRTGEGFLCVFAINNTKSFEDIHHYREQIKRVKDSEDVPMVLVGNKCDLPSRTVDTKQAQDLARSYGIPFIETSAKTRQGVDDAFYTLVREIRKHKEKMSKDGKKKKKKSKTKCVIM
Sequence (P62937 whole entry): as the sequence (P62937 whole entry) above
pIC50: −log10 of the molar value.
readoutType: pIC50

// solved cases for pIC50 follow
- compound: "CCn1c(-c2cnccc2COC)c2c3cc(ccc31)-c1cc(O)cc(c1)C[C@H](NC(=O)[C@H](C(C)C)N(C)C(=O)CN/C(N)=N/C#N)C(=O)N1CCC[C@H](N1)C(=O)OCC(C)(C)C2 [Compound A62]"
  pIC50: "6.00 to 7.00"
- compound: "CCn1c(-c2cccnc2[C@H](C)OC)c2c3cc(ccc31)-c1csc(n1)C[C@H](NC(=O)[C@H](C(C)C)N1C[C@@H](c3ccccc3)CC1=O)C(=O)N1CCC[C@H](N1)C(=O)OCC(C)(C)C2 (single isomer, unassigned) [Compound A544]"
  pIC50: "5.00 to 6.00"
- compound: "CCn1c(-c2cccnc2[C@H](C)OC)c2c3cc(ccc31)-c1cc(O)cc(c1)C[C@H](NC(=O)[C@H](C(C)C)N(C)C(=O)C1CC3(CCOCC3)CO1)C(=O)N1CCC[C@H](N1)C(=O)OCC(C)(C)C2 (stereo partly shown) [Compound A413]"
  pIC50: "6.00 to 7.00"

pIC50 reported for this compound CCn1c(-c2cccnc2[C@H](C)OC)c2c3cc(ccc31)-c1csc(n1)C[C@H](NC(=O)[C@H](C(C)C)N(C)C(=O)N1C[C@H](C)N(C)C[C@H]1C)C(=O)N1CCC[C@H](N1)C(=O)OCC(C)(C)C2 [Compound A300] : 5.00 to 6.00

====

What IC50 was measured for each of the following?
target: KRAS WT (Homo sapiens (Human), UniProt P01116+P62937); experiment: Ras-Raf disruption/FRET/MOA assay (BRAF RBD, Cyclophilin A); assay type: biochemical; settings: read-out: KRAS WT FRET data IC50
Sequence (P01116 other isoform, or with tags, fused parts or gaps, one chain of several): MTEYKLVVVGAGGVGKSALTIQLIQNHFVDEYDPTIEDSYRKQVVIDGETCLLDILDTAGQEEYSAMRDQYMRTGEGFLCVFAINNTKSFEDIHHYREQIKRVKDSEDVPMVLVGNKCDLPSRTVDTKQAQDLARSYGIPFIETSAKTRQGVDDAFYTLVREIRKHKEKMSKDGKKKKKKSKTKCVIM

// solved cases for IC50 follow
- compound: "CCn1c(-c2cccnc2[C@H](C)OC)c2c3cc(ccc31)-c1csc(n1)C[C@H](NC(=O)[C@H](C(C)C)N(C)C(=O)[C@H]1CCN(CCO)C1)C(=O)N1CCC[C@H](N1)C(=O)OCC(C)(C)C2"
  result: "1000 to 10000 nM"
- compound: "CCn1c(-c2cccnc2[C@H](C)OC)c2c3cc(ccc31)-c1cc(O)cc(c1)C[C@H](NS(=O)(=O)C1CC1)C(=O)N1CCC[C@H](N1)C(=O)OCC(C)(C)C2"
  result: "> 10000 nM"
- compound: "CCn1c(-c2cccnc2[C@H](C)OC)c2c3cc(ccc31)-c1csc(n1)C[C@H](NC(=O)[C@H](C(C)C)N(C)C(=O)N1CC(N3CCOCC3)C1)C(=O)N1CCC[C@H](N1)C(=O)OCC(C)(C)C2"
  result: "100 to 1000 nM"

Look at each compound and report its IC50.
1. CCn1c(-c2cccnc2[C@H](C)OC)c2c3cc(ccc31)-c1cc(O)cc(c1)C[C@H](NC(=O)[C@H](C(C)C)N(C)C(=O)C1CC13CNC3)C(=O)N1CCC[C@H](N1)C(=O)OCC(C)(C)C2 (some centres unmarked)
2. CCn1c(-c2cccnc2[C@H](C)OC)c2c3cc(ccc31)-c1csc(n1)C[C@H](NC(=O)C1CC1)C(=O)N1CCC[C@H](N1)C(=O)OCC(C)(C)C2

### Response
1. 10 to 100 nM
2. 100 to 1000 nM

====

What IC50 was measured for each of the following?
target: KRAS Q61H (Homo sapiens (Human), UniProt P01116+P62937, Q61H); assay: Ras-Raf disruption/FRET/MOA assay (BRAF RBD, Cyclophilin A); type: biochemical
Sequence (P01116 other isoform, or with tags, fused parts or gaps Q61H): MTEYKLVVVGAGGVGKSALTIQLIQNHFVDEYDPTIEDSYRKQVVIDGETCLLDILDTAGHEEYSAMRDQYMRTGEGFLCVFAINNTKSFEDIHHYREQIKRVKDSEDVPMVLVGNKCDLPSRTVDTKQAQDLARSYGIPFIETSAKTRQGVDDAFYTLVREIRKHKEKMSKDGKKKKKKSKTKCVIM
Sequence (P62937 whole entry): as the sequence (P62937 whole entry) above

- mol: "CCn1c(-c2cccnc2[C@H](C)OC)c2c3cc(ccc31)-c1cc(O)cc(c1)C[C@H](NC(=O)[C@H](C(C)C)N(C)C(=O)[C@H]1C[C@H]1O)C(=O)N1CCC[C@H](N1)C(=O)OCC(C)(C)C2"
  IC50: "10 to 100 nM"
- mol: "CCn1c(-c2cccnc2[C@H](C)OC)c2c3cc(ccc31)-c1csc(n1)C[C@H](NC(=O)[C@H](C(C)C)N(C)C(=O)N1CC3(CCOCC3)C1)C(=O)N1CCC[C@H](N1)C(=O)OCC(C)(C)C2"
  IC50: "100 to 1000 nM"
- mol: "CCn1c(-c2cccnc2[C@H](C)OC)c2c3cc(ccc31)-c1csc(n1)C[C@H](NC(=O)[C@H](C(C)C)N(C)C(=O)N1CC(C(C)(C)O)C1)C(=O)N1CCC[C@H](N1)C(=O)OCC(C)(C)C2"
  IC50: "10 to 100 nM"

Moving on to another compound below.
IC50 reported for this compound "CCn1c(-c2cccnc2[C@H](C)OC)c2c3cc(ccc31)-c1cc(cc(C(F)F)c1)C[C@H](NC(=O)[C@H](C(C)C)N(C)C(=O)[C@@H]1OCC[C@@H]1c1ccccc1)C(=O)N1CCC[C@H](N1)C(=O)OCC(C)(C)C2" : 100 to 1000 nM

====

target: KRAS G12S (Homo sapiens (Human), UniProt P01116+P62937, G12S); assay: Ras-Raf disruption/FRET/MOA assay (BRAF RBD, Cyclophilin A); format: biochemical; details: read-out: KRAS G12S FRET IC50
readoutType: IC50

- compound: "CCn1c(-c2cccnc2[C@H](C)OC)c2c3cc(ccc31)-c1csc(n1)C[C@H](NC(=O)[C@H](C(C)C)N(C)C(=O)N1CC([C@H](CO)OC)C1)C(=O)N1CCC[C@H](N1)C(=O)OCC(C)(C)C2"
  systemUnderTest: "KRAS G12S (Homo sapiens (Human), UniProt P01116+P62937, G12S)"
  IC50: "0.1 to 1 µM"

Look at each compound and report its IC50.
1. CCn1c(-c2cnccc2COC)c2c3cc(ccc31)-c1cc(O)cc(c1)C[C@H](NC(=O)[C@@H](NC(=O)c1ncco1)C(C)C)C(=O)N1CCC[C@H](N1)C(=O)OCC(C)(C)C2
2. CCn1c(-c2cnccc2COC)c2c3cc(ccc31)-c1cc(O)cc(c1)C[C@H](NC(=O)[C@H](C(C)C)N(C)c1cnc(N)[nH]c1=O)C(=O)N1CCC[C@H](N1)C(=O)OCC(C)(C)C2
3. CCn1c(-c2cccnc2[C@H](C)OC)c2c3cc(ccc31)-c1cc(O)cc(c1)C[C@H](NC(=O)[C@H](C(C)C)N(C)C(=O)[C@H]1[C@@H](N)[C@@H]3CC[C@H]1O3)C(=O)N1CCC[C@H](N1)C(=O)OCC(C)(C)C2
4. CCn1c(-c2cnccc2COC)c2c3cc(ccc31)-c1cc(O)cc(c1)C[C@H](NC(=O)[C@H](C(C)C)N(C)C(=O)CCCCN)C(=O)N1CCC[C@H](N1)C(=O)OCC(C)(C)C2
5. CCn1c(-c2cccnc2[C@H](C)OC)c2c3cc(ccc31)-c1csc(n1)C[C@H](NC(=O)[C@H](C(C)C)N(C)C(=O)N1CC[C@@]13CCCNC3)C(=O)N1CCC[C@H](N1)C(=O)OCC(C)(C)C2

### Response
1 to 10 µM
1 to 10 µM
0.1 to 1 µM
0.1 to 1 µM
0.1 to 1 µM

Look at each compound and report its IC50.
1. CCn1c(-c2cccnc2[C@H](C)OC)c2c3cc(ccc31)C1=C[C@@H](O)CN(C1)C[C@H](NC(=O)[C@H]1[C@H](C)[C@@H]1C)C(=O)N1CCC[C@H](N1)C(=O)OCC(C)(C)C2
2. CCn1c(-c2cccnc2[C@H](C)OC)c2c3cc(ccc31)-c1csc(n1)C[C@H](NC(=O)[C@H](C(C)C)N(C)C(=O)N1C[C@H]3COC[C@H]3C1)C(=O)N1CCC[C@H](N1)C(=O)OCC(C)(C)C2
3. CCn1c(-c2cccnc2[C@H](C)OC)c2c3cc(ccc31)-c1cc(O)cc(c1)C[C@H](NC(=O)[C@H](C(C)C)N(C)C(=O)[C@H]1CCN(C(=O)CCc3ccccc3)C1)C(=O)N1CCC[C@H](N1)C(=O)OCC(C)(C)C2
4. CCn1c(-c2cccnc2[C@H](C)OC)c2c3cc(ccc31)-c1csc(n1)C[C@H](NC(=O)[C@H](C(C)C)N(C)C(=O)C1COC1)C(=O)N1CCC[C@H](N1)C(=O)OCC(C)(C)C2
5. CCn1c(-c2ccccc2CCOC)c2c3cc(ccc31)-c1cc(O)cc(c1)C[C@H](NC(=O)[C@H](C(C)C)N(C)C(=O)CNC(=N)N)C(=O)N1CCC[C@H](N1)C(=O)OCC(C)(C)C2
6. CCn1c(-c2cccnc2[C@H](C)OC)c2c3cc(ccc31)-c1csc(n1)C[C@H](NC(=O)[C@H](C(C)C)N(C)C(=O)N1[C@H](C)COC[C@H]1C)C(=O)N1CCC[C@H](N1)C(=O)OCC(C)(C)C2
7. CCn1c(-c2cccnc2[C@H](C)OC)c2c3cc(ccc31)-c1csc(n1)C[C@H](NC(=O)[C@H](C(C)C)N(C)C(=O)[C@H]1CCN(S(C)(=O)=O)C1)C(=O)N1CCC[C@H](N1)C(=O)OCC(C)(C)C2

### Response
0.01 to 0.1 µM
0.01 to 0.1 µM
0.1 to 1 µM
1 to 10 µM
0.1 to 1 µM
0.01 to 0.1 µM
1 to 10 µM
